The compounds listed here are annotated with their IC50.
Biological target: vanilloid receptor 1 (VR1/TRPV1) (Rattus norvegicus, UniProt O35433)
Construct: from tissue; host or cells: primary cells dissociated from rat dorsal root ganglia (DRGs), cultured for two to three days
Sequence (O35433 whole entry): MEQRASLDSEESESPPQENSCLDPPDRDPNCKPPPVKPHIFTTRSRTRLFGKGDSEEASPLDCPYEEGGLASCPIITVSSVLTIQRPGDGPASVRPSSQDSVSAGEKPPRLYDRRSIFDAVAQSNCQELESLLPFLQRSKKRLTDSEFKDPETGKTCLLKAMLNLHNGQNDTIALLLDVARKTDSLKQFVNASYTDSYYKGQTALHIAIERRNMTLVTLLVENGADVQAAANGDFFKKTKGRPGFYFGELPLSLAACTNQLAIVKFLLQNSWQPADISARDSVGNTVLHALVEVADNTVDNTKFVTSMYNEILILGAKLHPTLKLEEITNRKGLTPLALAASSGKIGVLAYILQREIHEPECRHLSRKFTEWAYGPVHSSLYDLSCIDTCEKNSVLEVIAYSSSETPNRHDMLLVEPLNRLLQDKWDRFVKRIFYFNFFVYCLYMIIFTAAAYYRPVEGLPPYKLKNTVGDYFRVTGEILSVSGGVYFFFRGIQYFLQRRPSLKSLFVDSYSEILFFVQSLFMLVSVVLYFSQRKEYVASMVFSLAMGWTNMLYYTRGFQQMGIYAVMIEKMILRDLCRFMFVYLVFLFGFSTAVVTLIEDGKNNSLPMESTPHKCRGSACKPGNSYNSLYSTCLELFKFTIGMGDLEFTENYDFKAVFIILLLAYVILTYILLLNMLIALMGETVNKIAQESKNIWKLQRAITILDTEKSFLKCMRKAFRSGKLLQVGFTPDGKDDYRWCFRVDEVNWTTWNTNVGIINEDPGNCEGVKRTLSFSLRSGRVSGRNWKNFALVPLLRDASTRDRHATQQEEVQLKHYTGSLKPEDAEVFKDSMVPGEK
Test: Functional investigation on the vanilloid receptor 1 (FLIPR Ca2+ influx assay, capsaicin)
Format: cell-based
Conditions: rat dorsal root ganglia cells, Fluo-4 FLIPR, 100 nM capsaicin

# COMPOUND, IC50
rows = [
    ("CC(C)(C)c1ccc(CN2CCN(Cc3ccc(NS(C)(=O)=O)cc3)C2=O)cc1 [Example 4]", "9.4 µM"),
]

Continue with the next compound.
The compound identified as CC(C)(C)c1ccc(CN2CCCN(Cc3ccc(NS(C)(=O)=O)cc3)C2=O)cc1 [Example 5] registered its IC50 at 2.9 µM
